Each recorded value in this set is attributed to patent US20050107353A1.

biological target: TTX-R sodium currents in bladder afferent neurons (Rattus norvegicus); construct: Whole cell patch-clamp recordings were obtained from dye-labeled DRG neurons; endogenous in cells; test: Bladder sensory neuron sodium channel current model: whole cell patch-clamp of TTX-R sodium currents; settings: three bladder afferent neurons, 2-3 minute application, TTX 300 nM present; read-out: estimated IC50 for block of TTX-R sodium currents
Sequence (Q62968 whole entry): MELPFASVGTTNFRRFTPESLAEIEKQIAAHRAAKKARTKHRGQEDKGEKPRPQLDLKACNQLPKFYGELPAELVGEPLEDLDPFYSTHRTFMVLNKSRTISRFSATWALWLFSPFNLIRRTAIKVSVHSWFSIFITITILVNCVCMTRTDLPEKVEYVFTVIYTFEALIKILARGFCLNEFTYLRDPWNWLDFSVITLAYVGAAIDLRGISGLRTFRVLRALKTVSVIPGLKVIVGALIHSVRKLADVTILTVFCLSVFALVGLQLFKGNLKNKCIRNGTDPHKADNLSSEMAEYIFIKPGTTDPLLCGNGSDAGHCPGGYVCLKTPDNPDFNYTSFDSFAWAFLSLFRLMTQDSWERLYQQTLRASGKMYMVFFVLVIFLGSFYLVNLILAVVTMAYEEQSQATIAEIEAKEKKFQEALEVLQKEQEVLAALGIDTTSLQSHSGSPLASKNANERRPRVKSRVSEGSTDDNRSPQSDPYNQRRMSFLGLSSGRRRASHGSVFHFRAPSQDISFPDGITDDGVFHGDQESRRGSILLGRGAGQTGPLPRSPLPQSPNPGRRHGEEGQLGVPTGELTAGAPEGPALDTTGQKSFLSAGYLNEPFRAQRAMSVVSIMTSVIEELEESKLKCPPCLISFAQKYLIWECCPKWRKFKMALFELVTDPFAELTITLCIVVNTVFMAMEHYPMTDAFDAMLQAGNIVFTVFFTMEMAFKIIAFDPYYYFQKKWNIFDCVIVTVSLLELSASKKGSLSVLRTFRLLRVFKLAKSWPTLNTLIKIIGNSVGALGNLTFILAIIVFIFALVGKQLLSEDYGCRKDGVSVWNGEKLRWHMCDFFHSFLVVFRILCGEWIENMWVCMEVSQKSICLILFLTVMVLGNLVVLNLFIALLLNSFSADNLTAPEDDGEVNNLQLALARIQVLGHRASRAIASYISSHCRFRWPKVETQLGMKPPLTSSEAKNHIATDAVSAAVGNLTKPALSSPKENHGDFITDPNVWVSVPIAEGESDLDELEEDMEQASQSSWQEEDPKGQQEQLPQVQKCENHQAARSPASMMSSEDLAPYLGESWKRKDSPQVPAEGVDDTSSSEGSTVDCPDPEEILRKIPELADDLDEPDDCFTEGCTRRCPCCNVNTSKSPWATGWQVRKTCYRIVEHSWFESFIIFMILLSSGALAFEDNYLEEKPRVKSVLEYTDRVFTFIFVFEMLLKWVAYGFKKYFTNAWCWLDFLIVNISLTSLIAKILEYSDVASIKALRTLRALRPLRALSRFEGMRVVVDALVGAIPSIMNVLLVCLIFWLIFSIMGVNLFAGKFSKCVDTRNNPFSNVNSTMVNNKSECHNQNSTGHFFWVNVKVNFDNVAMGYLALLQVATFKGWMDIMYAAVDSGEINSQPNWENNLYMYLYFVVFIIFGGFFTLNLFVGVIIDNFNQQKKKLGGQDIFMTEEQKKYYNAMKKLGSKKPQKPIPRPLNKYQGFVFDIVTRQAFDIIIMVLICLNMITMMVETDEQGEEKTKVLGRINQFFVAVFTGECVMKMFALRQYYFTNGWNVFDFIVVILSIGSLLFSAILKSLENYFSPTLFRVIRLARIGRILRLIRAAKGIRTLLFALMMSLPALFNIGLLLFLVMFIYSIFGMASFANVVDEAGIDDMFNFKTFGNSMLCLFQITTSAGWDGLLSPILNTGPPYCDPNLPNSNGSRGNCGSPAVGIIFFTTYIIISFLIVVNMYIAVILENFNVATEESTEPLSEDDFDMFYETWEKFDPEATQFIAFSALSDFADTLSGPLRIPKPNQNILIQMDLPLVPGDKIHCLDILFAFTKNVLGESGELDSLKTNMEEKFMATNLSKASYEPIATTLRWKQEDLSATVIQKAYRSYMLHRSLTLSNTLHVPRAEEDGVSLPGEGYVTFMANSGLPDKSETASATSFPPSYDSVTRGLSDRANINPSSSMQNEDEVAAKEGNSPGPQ
ASSAY_METRIC: IC50

// query Consider the molecule shown here: Nc1c(Br)cc(Br)cc1CNC1CCC(O)CC1 (stereo not shown) What is its recorded IC50?
// result ~15 µM
